Measured log10 of MIC, listed per entry for reference.
system: Streptococcus pyogenes; assay: Antibacterial activity against erythromycin-susceptible Streptococcus pyogenes clinical isolate by broth microdilution method; format: functional
Log10 applied to MIC; unit prior to transform: µg/mL.

Using the record for `CC[C@H]1OC(=O)[C@H](C)[C@@H](O)[C@H](C)[C@@H](O[C@@H]2O[C@H](C)C[C@H](N(C)C)[C@H]2OC(=O)Nc2ccccc2C)[C@](C)(O)C[C@@H](C)CN(C)[C@H](C)[C@H]2OC(=O)O[C@@]21C` , state its measured log10 of MIC.
-0.30

Using the record for `CC[C@H]1OC(=O)[C@H](C)[C@@H](OC(=O)Nc2ccccc2)[C@H](C)[C@@H](O[C@@H]2O[C@H](C)C[C@H](N(C)C)[C@H]2OC(C)=O)[C@](C)(O)C[C@@H](C)CN(C)[C@H](C)[C@H]2OC(=O)O[C@@]21C` , state its measured log10 of MIC.
-0.60

Using the record for `CC[C@H]1OC(=O)[C@H](C)[C@@H](OC(=O)N(C)c2ccccc2)[C@H](C)[C@@H](O[C@@H]2O[C@H](C)C[C@H](N(C)C)[C@H]2O)[C@](C)(O)C[C@@H](C)CN(C)[C@H](C)[C@H]2OC(=O)O[C@@]21C` , state its measured log10 of MIC.
-0.90

----------
Measured MIC, listed per entry for reference.
tested on: Streptococcus pneumoniae; test: Antibacterial activity against erythromycin-resistant Streptococcus pneumoniae AB11 expressing ermB/mefA genes by broth microdilution method; assay type: functional
Provide the reading as a plain figure in µg/mL.

Here is how some molecules turned out for MIC.
Using the record for `CC[C@H]1OC(=O)[C@H](C)[C@@H](OC(=O)Nc2ccccc2C)[C@H](C)[C@@H](O[C@@H]2O[C@H](C)C[C@H](N(C)C)[C@H]2O)[C@](C)(O)C[C@@H](C)CN(C)[C@H](C)[C@@H](OC(=O)NCc2ccccc2)[C@]1(C)O` , state its measured MIC.
2

Using the record for `CC[C@H]1OC(=O)[C@H](C)[C@@H](OC(=O)Nc2ccccc2)[C@H](C)[C@@H](O[C@@H]2O[C@H](C)C[C@H](N(C)C)[C@H]2O)[C@](C)(O)C[C@@H](C)CN(C)[C@H](C)[C@H]2OC(=O)O[C@@]21C` , state its measured MIC.
16

Using the record for `CC[C@H]1OC(=O)[C@H](C)[C@@H](OC(=O)Nc2cccc(F)c2)[C@H](C)[C@@H](O[C@@H]2O[C@H](C)C[C@H](N(C)C)[C@H]2O)[C@](C)(O)C[C@@H](C)CN(C)[C@H](C)[C@H]2OC(=O)O[C@@]21C` , state its measured MIC.
32

Using the record for `CCCCc1ccc(NC(=O)O[C@H]2[C@H](O[C@@H]3[C@@H](C)[C@H](O)[C@@H](C)C(=O)O[C@H](CC)[C@@]4(C)OC(=O)O[C@@H]4[C@@H](C)N(C)C[C@H](C)C[C@@]3(C)O)O[C@H](C)C[C@@H]2N(C)C)cc1` , state its measured MIC.
32

New cases:
Using the record for `CC[C@H]1OC(=O)[C@H](C)[C@@H](O)[C@H](C)[C@@H](O[C@@H]2O[C@H](C)C[C@H](N(C)C)[C@H]2OC(=O)Nc2ccc(F)cc2)[C@](C)(O)C[C@@H](C)CN(C)[C@H](C)[C@H]2OC(=O)O[C@@]21C` , state its measured MIC.
8

Using the record for `CC[C@H]1OC(=O)[C@H](C)[C@@H](OC(=O)Nc2cccc(C)c2)[C@H](C)[C@@H](O[C@@H]2O[C@H](C)C[C@H](N(C)C)[C@H]2O)[C@](C)(O)C[C@@H](C)CN(C)[C@H](C)[C@H]2OC(=O)O[C@@]21C` , state its measured MIC.
16

Using the record for `CC[C@H]1OC(=O)[C@H](C)[C@@H](OC(=O)Nc2cccc(C)c2)[C@H](C)[C@@H](O[C@@H]2O[C@H](C)C[C@H](N(C)C)[C@H]2O)[C@](C)(O)C[C@@H](C)CN(C)[C@H](C)[C@@H](OC(=O)NCc2ccc(OC)cc2)[C@]1(C)O` , state its measured MIC.
16

Using the record for `CC[C@H]1OC(=O)[C@H](C)[C@@H](OC(=O)Nc2cccc(OC)c2)[C@H](C)[C@@H](O[C@@H]2O[C@H](C)C[C@H](N(C)C)[C@H]2OC(C)=O)[C@](C)(O)C[C@@H](C)CN(C)[C@H](C)[C@H]2OC(=O)O[C@@]21C` , state its measured MIC.
32

----------
Measured MIC, listed per entry for reference.
tested on: Streptococcus pyogenes; assay: Antibacterial activity against erythromycin-susceptible Streptococcus pyogenes clinical isolate by broth microdilution method; type: functional
Provide the reading as a plain figure in µg/mL.

Using the record for `CC[C@H]1OC(=O)[C@H](C)[C@@H](OC(=O)Nc2ccc(F)cc2)[C@H](C)[C@@H](O[C@@H]2O[C@H](C)C[C@H](N(C)C)[C@H]2O)[C@](C)(O)C[C@@H](C)CN(C)[C@H](C)[C@H]2OC(=O)O[C@@]21C` , state its measured MIC.
0.25

New cases:
Using the record for `CCCCc1ccc(NC(=O)O[C@H]2[C@H](O[C@@H]3[C@@H](C)[C@H](O)[C@@H](C)C(=O)O[C@H](CC)[C@@]4(C)OC(=O)O[C@@H]4[C@@H](C)N(C)C[C@H](C)C[C@@]3(C)O)O[C@H](C)C[C@@H]2N(C)C)cc1` , state its measured MIC.
8

Using the record for `CC[C@H]1OC(=O)[C@H](C)[C@@H](O)[C@H](C)[C@@H](O[C@@H]2O[C@H](C)C[C@H](N(C)C)[C@H]2OC(=O)Nc2ccc(F)cc2)[C@](C)(O)C[C@@H](C)CN(C)[C@H](C)[C@H]2OC(=O)O[C@@]21C` , state its measured MIC.
1

Using the record for `CC[C@H]1OC(=O)[C@H](C)[C@@H](OC(=O)Nc2ccc(C(F)(F)F)cc2)[C@H](C)[C@@H](O[C@@H]2O[C@H](C)C[C@H](N(C)C)[C@H]2O)[C@](C)(O)C[C@@H](C)CN(C)[C@H](C)[C@H]2OC(=O)O[C@@]21C` , state its measured MIC.
1

----------
test system: Streptococcus pyogenes; assay: Antibacterial activity against erythromycin-resistant Streptococcus pyogenes R1 clinical isolate by broth microdilution method; type: functional
Measured MIC, listed per entry for reference.
Provide the reading as a plain figure in µg/mL.

Here is how some molecules turned out for MIC.
Using the record for `CC[C@H]1OC(=O)[C@H](C)[C@@H](OC(=O)Nc2cccc(C)c2)[C@H](C)[C@@H](O[C@@H]2O[C@H](C)C[C@H](N(C)C)[C@H]2O)[C@](C)(O)C[C@@H](C)CN(C)[C@H](C)[C@@H](OC(=O)NCc2ccc(OC)cc2)[C@]1(C)O` , state its measured MIC.
128

Using the record for `CC[C@H]1OC(=O)[C@H](C)[C@@H](OC(=O)Nc2ccccc2C)[C@H](C)[C@@H](O[C@@H]2O[C@H](C)C[C@H](N(C)C)[C@H]2O)[C@](C)(O)C[C@@H](C)CN(C)[C@H](C)[C@@H](OC(=O)NCc2ccccc2)[C@]1(C)O` , state its measured MIC.
128

New cases:
Using the record for `CC[C@H]1OC(=O)[C@H](C)[C@@H](OC(=O)Nc2ccccc2)[C@H](C)[C@@H](O[C@@H]2O[C@H](C)C[C@H](N(C)C)[C@H]2OC(C)=O)[C@](C)(O)C[C@@H](C)CN(C)[C@H](C)[C@H]2OC(=O)O[C@@]21C` , state its measured MIC.
128

Using the record for `CC[C@H]1OC(=O)[C@H](C)[C@@H](OC(=O)Nc2ccccc2)[C@H](C)[C@@H](O[C@@H]2O[C@H](C)C[C@H](N(C)C)[C@H]2O)[C@](C)(O)C[C@@H](C)CN(C)[C@H](C)[C@@H](OC(=O)NCc2ccccc2)[C@]1(C)O` , state its measured MIC.
64

Using the record for `CC[C@H]1OC(=O)[C@H](C)[C@@H](OC(=O)Nc2ccccc2C)[C@H](C)[C@@H](O[C@@H]2O[C@H](C)C[C@H](N(C)C)[C@H]2O)[C@](C)(O)C[C@@H](C)CN(C)[C@H](C)[C@H]2OC(=O)O[C@@]21C` , state its measured MIC.
32

Using the record for `CC[C@H]1OC(=O)[C@H](C)[C@@H](O)[C@H](C)[C@@H](O[C@@H]2O[C@H](C)C[C@H](N(C)C)[C@H]2OC(=O)Nc2cccc(OC)c2)[C@](C)(O)C[C@@H](C)CN(C)[C@H](C)[C@H]2OC(=O)O[C@@]21C` , state its measured MIC.
128

Using the record for `CC[C@H]1OC(=O)[C@H](C)[C@@H](O)[C@H](C)[C@@H](O[C@@H]2O[C@H](C)C[C@H](N(C)C)[C@H]2OC(=O)Nc2cccc(F)c2)[C@](C)(O)C[C@@H](C)CN(C)[C@H](C)[C@H]2OC(=O)O[C@@]21C` , state its measured MIC.
128

Using the record for `CC[C@H]1OC(=O)[C@H](C)[C@@H](OC(=O)Nc2cccc(OC)c2)[C@H](C)[C@@H](O[C@@H]2O[C@H](C)C[C@H](N(C)C)[C@H]2OC(C)=O)[C@](C)(O)C[C@@H](C)CN(C)[C@H](C)[C@H]2OC(=O)O[C@@]21C` , state its measured MIC.
128

Using the record for CC[C@H]1OC(=O)[C@H](C)[C@@H](O[C@H]2C[C@@](C)(OC)[C@@H](O)[C@H](C)O2)[C@H](C)[C@@H](O[C@@H]2O[C@H](C)C[C@H](N(C)C)[C@H]2O)[C@](C)(O)C[C@@H](C)CN(C)[C@H](C)[C@@H](O)[C@]1(C)O [AZITHROMYCIN] , state its measured MIC.
256

Using the record for `CC[C@H]1OC(=O)[C@H](C)[C@@H](OC(=O)N(C)c2ccccc2)[C@H](C)[C@@H](O[C@@H]2O[C@H](C)C[C@H](N(C)C)[C@H]2O)[C@](C)(O)C[C@@H](C)CN(C)[C@H](C)[C@H]2OC(=O)O[C@@]21C` , state its measured MIC.
64

Using the record for `CC[C@H]1OC(=O)[C@H](C)[C@@H](OC(=O)Nc2cccc(OC)c2)[C@H](C)[C@@H](O[C@@H]2O[C@H](C)C[C@H](N(C)C)[C@H]2O)[C@](C)(O)C[C@@H](C)CN(C)[C@H](C)[C@H]2OC(=O)O[C@@]21C` , state its measured MIC.
64

Where these numbers come from: ChEMBL document CHEMBL3994579
